System: Streptococcus pneumoniae
Assay: Antibacterial activity against tetracycline-resistant Streptococcus pneumoniae isolate 160 harboring tet(M) gene by CLSI M07-A8 method
Type: functional
Output true (1) for records whose MIC is lower than 4 µg/mL, false (0) for records at or above 4 µg/mL.

Example results:
INSERT INTO assay_data (compound, label) VALUES
  ('CN(C)CC(C)(C)CNc1nc(F)c2c(c1O)C(=O)C1=C(O)[C@]3(O)C(=O)C(C(N)=O)=C(O)[C@@H](N(C)C)[C@@H]3C[C@@H]1C2.Cl', 'true (1)'),
  ('CN(C)c1cc(NC(=O)CNC(C)(C)C)c(O)c2c1C[C@H]1C[C@H]3[C@H](N(C)C)C(O)=C(C(N)=O)C(=O)[C@@]3(O)C(O)=C1C2=O [TIGECYCLINE]', 'true (1)'),
  ('CC(C)CNc1nc(Cl)c2c(c1O)C(=O)C1=C(O)[C@]3(O)C(=O)C(C(N)=O)=C(O)[C@@H](N(C)C)[C@@H]3C[C@@H]1C2.Cl.Cl.Cl', 'false (0)'),
  ('CCCNc1nc(N(C)C)c2c(c1O)C(=O)C1=C(O)[C@]3(O)C(=O)C(C(N)=O)=C(O)[C@@H](N(C)C)[C@@H]3C[C@@H]1C2.Cl.Cl', 'false (0)'),
  ('CN(C)[C@@H]1C(O)=C(C(N)=O)C(=O)[C@@]2(O)C(O)=C3C(=O)c4c(O)c(-c5ccccc5)nc(Cl)c4C[C@H]3C[C@@H]12.Cl', 'false (0)'),
  ('CN(C)CCNc1nc(Cl)c2c(c1O)C(=O)C1=C(O)[C@]3(O)C(=O)C(C(N)=O)=C(O)[C@@H](N(C)C)[C@@H]3C[C@@H]1C2.Cl', 'true (1)');

Query: Please check: MIC for `CN(C)[C@@H]1C(O)=C(C(N)=O)C(=O)[C@@]2(O)C(O)=C3C(=O)c4c(O)c(NCC(C)(C)CN5CCCC5)nc(Cl)c4C[C@H]3C[C@@H]12.Cl` , strictly under 4 µg/mL or not?
Reply: true (1)

Query: Please indicate whether the reported MIC of `CN(C)[C@@H]1C(O)=C(C(N)=O)C(=O)[C@@]2(O)C(O)=C3C(=O)c4c(O)cnc(Cl)c4C[C@H]3C[C@@H]12.Cl` is strictly below 4 µg/mL.
Reply: false (0)

* * *

Tested on: Escherichia coli
Assay: Inhibition of protein synthesis in Escherichia coli S30 extract by coupled transcription/translation assay
Type: functional
IC50 strictly under 0.9 µg/mL means YES; at 0.9 µg/mL or over means NO.

Solved entries:
INSERT INTO assay_data (molecule, target, label) VALUES
  ('CN(C)[C@@H]1C(O)=C(C(N)=O)C(=O)[C@@]2(O)C(O)=C3C(=O)c4c(O)c(N)nc(F)c4C[C@H]3C[C@@H]12.Cl.Cl', 'Escherichia coli', 'NO'),
  ('CCCNc1nc(F)c2c(c1O)C(=O)C1=C(O)[C@]3(O)C(=O)C(C(N)=O)=C(O)[C@@H](N(C)C)[C@@H]3C[C@@H]1C2.Cl.Cl', 'Escherichia coli', 'NO');

Please turn your attention to the following entry.
Query: Just wondering, is IC50 of `CN(C)c1ncc(O)c2c1C[C@H]1C[C@H]3[C@H](N(C)C)C(O)=C(C(N)=O)C(=O)[C@@]3(O)C(O)=C1C2=O.Cl.Cl` below 0.9 µg/mL?
Reply: YES

* * *

System: Klebsiella pneumoniae
Test: Antibacterial activity against Klebsiella pneumoniae ATCC 13883 by CLSI M07-A8 method
Type: functional
The entries below come with measured MIC values attached.
Report the figure in µg/mL without appending any unit label.

INSERT INTO results (structure_as_smiles, unit_label, measured_value) VALUES
  ('CN(C)[C@@H]1C(O)=C(C(N)=O)C(=O)[C@@]2(O)C(O)=C3C(=O)c4c(O)cnc(F)c4C[C@H]3C[C@@H]12.Cl', 'µg/mL', 0.5);

Turning to the following compound.
Query: # get_value(readout='MIC', item= `CN(C)[C@@H]1C(O)=C(C(N)=O)C(=O)[C@@]2(O)C(O)=C3C(=O)c4c(O)c(NCC(C)(C)CN5CCCC5)nc(Cl)c4C[C@H]3C[C@@H]12.Cl` )
Reply: 4

* * *

Test system: Streptococcus pneumoniae
Assay: Antibacterial activity against Streptococcus pneumoniae ATCC 49619 by CLSI M07-A8 method
Assay type: functional
For each record, check the reported MIC: if it is below 0.06 µg/mL write true (1), else write false (0).

INSERT INTO measurements (structure_as_smiles, label) VALUES
  ('CNc1nc(Cl)c2c(c1O)C(=O)C1=C(O)[C@]3(O)C(=O)C(C(N)=O)=C(O)[C@@H](N(C)C)[C@@H]3C[C@@H]1C2.Cl.Cl.Cl', 'true (1)'),
  ('CCCc1nc(N(C)C)c2c(c1O)C(=O)C1=C(O)[C@]3(O)C(=O)C(C(N)=O)=C(O)[C@@H](N(C)C)[C@@H]3C[C@@H]1C2.Cl.Cl', 'false (0)'),
  ('CN(C)CC(C)(C)CNc1nc(Cl)c2c(c1O)C(=O)C1=C(O)[C@]3(O)C(=O)C(C(N)=O)=C(O)[C@@H](N(C)C)[C@@H]3C[C@@H]1C2.Cl', 'true (1)');

Query: Please check: MIC for `Cc1ncc(O)c2c1C[C@H]1C[C@H]3[C@H](N(C)C)C(O)=C(C(N)=O)C(=O)[C@@]3(O)C(O)=C1C2=O.Cl.Cl` , strictly under 0.06 µg/mL or not?
Reply: false (0)

Query: Determine whether this compound shows MIC lower than 0.06 µg/mL (ties excluded): `CN(C)c1ncc(O)c2c1C[C@H]1C[C@H]3[C@H](N(C)C)C(O)=C(C(N)=O)C(=O)[C@@]3(O)C(O)=C1C2=O.Cl.Cl`
Reply: false (0)

Query: Record `CN(C)CC(C)(C)CNc1nc(F)c2c(c1O)C(=O)C1=C(O)[C@]3(O)C(=O)C(C(N)=O)=C(O)[C@@H](N(C)C)[C@@H]3C[C@@H]1C2.Cl` : is its MIC strictly below 0.06 µg/mL?
Reply: false (0)

* * *

Tested on: Streptococcus pneumoniae
Assay: Antibacterial activity against tetracycline-resistant Streptococcus pneumoniae isolate 160 harboring tet(M) gene by CLSI M07-A8 method
Format: functional
compounds and their reported MIC
Enter your answer as a number in µg/mL; do not include the unit.

Please review the following examples before continuing.
INSERT INTO assay_data (structure_as_smiles, quantity_measured, measured_value) VALUES
  ('Cc1ncc2c(c1O)C(=O)C1=C(O)[C@]3(O)C(=O)C(C(N)=O)=C(O)[C@@H](N(C)C)[C@@H]3C[C@@H]1C2.Cl.Cl', 'MIC', 16),
  ('CN(C)[C@@H]1C(O)=C(C(N)=O)C(=O)[C@@]2(O)C(O)=C3C(=O)c4c(O)cnc(F)c4C[C@H]3C[C@@H]12.Cl', 'MIC', 8),
  ('CN(C)[C@@H]1C(O)=C(C(N)=O)C(=O)[C@@]2(O)C(O)=C3C(=O)c4c(O)cnc(-c5ccccc5)c4C[C@H]3C[C@@H]12.Cl.Cl', 'MIC', 4),
  ('CN(C)[C@@H]1C(O)=C(C(N)=O)C(=O)[C@@]2(O)C(O)=C3C(=O)c4c(cnc(-c5ccccc5)c4O)C[C@H]3C[C@@H]12.Cl.Cl', 'MIC', 8),
  ('CCCNc1nc(F)c2c(c1O)C(=O)C1=C(O)[C@]3(O)C(=O)C(C(N)=O)=C(O)[C@@H](N(C)C)[C@@H]3C[C@@H]1C2.Cl.Cl', 'MIC', 4);

Query compound follows.
Query: Given the compound `CN(C)c1cc(CNCC(C)(C)C)c(O)c2c1C[C@H]1C[C@H]3[C@H](N(C)C)C(O)=C(C(N)=O)C(=O)[C@@]3(O)C(O)=C1C2=O` , what is its reported MIC?
Reply: 0.125

* * *

Overview of reported MIC across a group of compounds:
System: Streptococcus pneumoniae
Experiment: Antibacterial activity against Streptococcus pneumoniae ATCC 49619 by CLSI M07-A8 method
Assay type: functional
The response must be a number in µg/mL with no trailing unit.

Answered examples (4):
INSERT INTO measurements (structure_as_smiles, quantity_measured, measured_value) VALUES
  ('CN(C)c1nc(NC(=O)CNC(C)(C)C)c(O)c2c1C[C@H]1C[C@H]3[C@H](N(C)C)C(O)=C(C(N)=O)C(=O)[C@@]3(O)C(O)=C1C2=O.Cl', 'MIC', 4),
  ('CN(C)[C@@H]1C(O)=C(C(N)=O)C(=O)[C@@]2(O)C(O)=C3C(=O)c4c(O)cnc(F)c4C[C@H]3C[C@@H]12.Cl', 'MIC', 0.016),
  ('CN(C)CCNc1nc(Cl)c2c(c1O)C(=O)C1=C(O)[C@]3(O)C(=O)C(C(N)=O)=C(O)[C@@H](N(C)C)[C@@H]3C[C@@H]1C2.Cl', 'MIC', 0.5),
  ('CN(C)[C@@H]1C(O)=C(C(N)=O)C(=O)[C@@]2(O)C(O)=C3C(=O)c4c(O)c(NC(=O)CNC(C)(C)C)nc(Cl)c4C[C@H]3C[C@@H]12.Cl.Cl.Cl', 'MIC', 1);

Moving on to another compound below.
Query: So what does the record say about MIC for `CCCNc1nc(N(C)C)c2c(c1O)C(=O)C1=C(O)[C@]3(O)C(=O)C(C(N)=O)=C(O)[C@@H](N(C)C)[C@@H]3C[C@@H]1C2.Cl.Cl` ?
Reply: 8
